assay: physchem; details: aqueous buffers of varied pH
Form field: pKa (one value per entry).

compound	pKa
CCCCCCNC(=O)c1cc2cc(F)c(O)cc2oc1=O [Compound 27]	6.5
CCCCCCNC(=O)c1cc2cc(F)c(O)c(F)c2oc1=O [Compound 30, reference compound]	4.1
CCCCCCNC(=O)c1cc2c(F)cc(O)cc2oc1=O [Compound 26]	6.9
CCCCCCNC(=O)c1cc2ccc(O)c(F)c2oc1=O [Compound 28]	6
CCCCCCNC(=O)c1cc2ccc(O)cc2oc1=O [Compound 29, reference compound]	7.3

====

test: Absorbance and fluorescence spectroscopy of coumarin amides (λmax, molar extinction coefficient, quantum yield); format: physicochemical; settings: aqueous PBS, 1% DMSO, pH 7.4

molecule	Abs. λmax
CCCCCCNC(=O)c1cc2cc(F)c(O)cc2oc1=O [Compound 27]	401 nm
CCCCCCNC(=O)c1cc2cc(F)c(O)c(F)c2oc1=O [Compound 30, reference compound]	403 nm
CCCCCCNC(=O)c1cc2ccc(O)c(F)c2oc1=O [Compound 28]	402 nm
CCCCCCNC(=O)c1cc2ccc(O)cc2oc1=O [Compound 29, reference compound]	401 nm
CCCCCCNC(=O)c1cc2c(F)cc(O)cc2oc1=O [Compound 26]	400 nm
